Test system: Escherichia coli TOP10
Experiment: shrunken log2 fold change of peptide-encoding DNA abundance (4.5 h post-induction vs induction); higher = less antimicrobial activity (less host growth inhibition)
Settings: time post-induction: 4.5 h; library: site-saturation at positions 5, 18, 19, 20
Parameter threshold = -0.06. Response is 1 when shrunken log2 fold change meets or exceeds it, else -1.

# count of solved cases: 10
Residue Codes	Target System	Class Assignment
RRIRFRPPRLPRPRPRPMDIPRP	Escherichia coli TOP10	-1
RRIRNRPPRLPRPRPRPMHTPRP	Escherichia coli TOP10	1
RRIRGRPPRLPRPRPRPCYSPRP	Escherichia coli TOP10	1
RRIRHRPPRLPRPRPRPFGEPRP	Escherichia coli TOP10	1
RRIRLRPPRLPRPRPRPLINPRP	Escherichia coli TOP10	-1
RRIRQRPPRLPRPRPRPCEEPRP	Escherichia coli TOP10	1
RRIRGRPPRLPRPRPRPCPYPRP	Escherichia coli TOP10	1
RRIRYRPPRLPRPRPRPPSWPRP	Escherichia coli TOP10	1
RRIRHRPPRLPRPRPRPHFNPRP	Escherichia coli TOP10	-1
RRIRGRPPRLPRPRPRPCNPPRP	Escherichia coli TOP10	-1

## Task Textbook exercise: given the entry RRIRSRPPRLPRPRPRPCIIPRP , state whether its shrunken log2 fold change is greater than or equal to -0.06.
## Result 1

## Task Textbook exercise: given the entry RRIRMRPPRLPRPRPRPIRDPRP , state whether its shrunken log2 fold change is greater than or equal to -0.06.
## Result -1

## Task Textbook exercise: given the entry RRIRCRPPRLPRPRPRPLFNPRP , state whether its shrunken log2 fold change is greater than or equal to -0.06.
## Result -1

## Task Textbook exercise: given the entry RRIRFRPPRLPRPRPRPNSNPRP , state whether its shrunken log2 fold change is greater than or equal to -0.06.
## Result -1

## Task Textbook exercise: given the entry RRIRERPPRLPRPRPRPGVAPRP , state whether its shrunken log2 fold change is greater than or equal to -0.06.
## Result 1

## Task Textbook exercise: given the entry RRIRTRPPRLPRPRPRPGIVPRP , state whether its shrunken log2 fold change is greater than or equal to -0.06.
## Result -1

---

Measured shrunken log2 fold change accompanies every entry in the list below.
System: Escherichia coli TOP10
Assay: shrunken log2 fold change of peptide-encoding DNA abundance (4.5 h post-induction vs induction); higher = less antimicrobial activity (less host growth inhibition)
Conditions: time post-induction: 4.5 h; library: site-saturation at positions 5, 18, 19, 20

Sample answers from the record:
Residue Codes	shrunken log2 fold change
RRIRIRPPRLPRPRPRPLYNPRP	-0.522
RRIRIRPPRLPRPRPRPQARPRP	-0.115
RRIRCRPPRLPRPRPRPSHLPRP	-0.53
RRIRMRPPRLPRPRPRPVAQPRP	0.963
RRIRIRPPRLPRPRPRPVNIPRP	-0.17
RRIRLRPPRLPRPRPRPYWLPRP	-0.54
RRIRKRPPRLPRPRPRPTLSPRP	0.0214
RRIRCRPPRLPRPRPRPHDHPRP	-0.307

## Task Return shrunken log2 fold change for the following sequence: RRIRKRPPRLPRPRPRPPHWPRP
## Result 0.756

## Task Return shrunken log2 fold change for the following sequence: RRIRQRPPRLPRPRPRPLFQPRP
## Result 0.866

## Task Return shrunken log2 fold change for the following sequence: RRIRRRPPRLPRPRPRPIDRPRP
## Result -0.0459

## Task Return shrunken log2 fold change for the following sequence: RRIRSRPPRLPRPRPRPETGPRP
## Result 0.105

## Task Return shrunken log2 fold change for the following sequence: RRIRERPPRLPRPRPRPGVFPRP
## Result 0.248

---

System: Escherichia coli TOP10
Assay: shrunken log2 fold change of peptide-encoding DNA abundance (4.5 h post-induction vs induction); higher = less antimicrobial activity (less host growth inhibition)
Details: time post-induction: 4.5 h; library: site-saturation at positions 5, 18, 19, 20
Endpoint: shrunken log2 fold change

Residue Codes	Readout Value
RRIRHRPPRLPRPRPRPNQEPRP	-0.00942

## Task Return shrunken log2 fold change for the following sequence: RRIRNRPPRLPRPRPRPDEDPRP
## Result 0.421

## Task Return shrunken log2 fold change for the following sequence: RRIRWRPPRLPRPRPRPVDTPRP
## Result 0.00157

## Task Return shrunken log2 fold change for the following sequence: RRIRSRPPRLPRPRPRPIQNPRP
## Result -0.119

## Task Return shrunken log2 fold change for the following sequence: RRIRWRPPRLPRPRPRPRPEPRP
## Result 0.502

## Task Return shrunken log2 fold change for the following sequence: RRIRMRPPRLPRPRPRPTIEPRP
## Result 0.43

## Task Return shrunken log2 fold change for the following sequence: RRIRTRPPRLPRPRPRPMKCPRP
## Result -0.0722

## Task Return shrunken log2 fold change for the following sequence: RRIRGRPPRLPRPRPRPCCMPRP
## Result 0.474

---

System: Escherichia coli TOP10
Assay: shrunken log2 fold change of peptide-encoding DNA abundance (4.5 h post-induction vs induction); higher = less antimicrobial activity (less host growth inhibition)
Conditions: time post-induction: 4.5 h; library: site-saturation at positions 5, 18, 19, 20
Parameter threshold = -0.02. Response is True when shrunken log2 fold change meets or exceeds it, else False.

# count of solved cases: 6
Residue Codes	Target System	Class Assignment
RRIRVRPPRLPRPRPRPITRPRP	Escherichia coli TOP10	True
RRIRLRPPRLPRPRPRPFNCPRP	Escherichia coli TOP10	True
RRIRWRPPRLPRPRPRPKMMPRP	Escherichia coli TOP10	False
RRIRYRPPRLPRPRPRPMLIPRP	Escherichia coli TOP10	False
RRIRFRPPRLPRPRPRPCLRPRP	Escherichia coli TOP10	False
RRIRFRPPRLPRPRPRPLWPPRP	Escherichia coli TOP10	True

## Task Textbook exercise: given the entry RRIRDRPPRLPRPRPRPKEAPRP , state whether its shrunken log2 fold change is greater than or equal to -0.02.
## Result False

## Task Textbook exercise: given the entry RRIRIRPPRLPRPRPRPYLVPRP , state whether its shrunken log2 fold change is greater than or equal to -0.02.
## Result False

## Task Textbook exercise: given the entry RRIRCRPPRLPRPRPRPFLQPRP , state whether its shrunken log2 fold change is greater than or equal to -0.02.
## Result True

## Task Textbook exercise: given the entry RRIRARPPRLPRPRPRPLNTPRP , state whether its shrunken log2 fold change is greater than or equal to -0.02.
## Result False

---

Measured shrunken log2 fold change accompanies every entry in the list below.
System: Escherichia coli TOP10
Experiment: shrunken log2 fold change of peptide-encoding DNA abundance (4.5 h post-induction vs induction); higher = less antimicrobial activity (less host growth inhibition)
Conditions: time post-induction: 4.5 h; library: site-saturation at positions 5, 18, 19, 20
Keep it simple and answer with nothing but the number.

Sample answers from the record:
Residue Codes	Target System	shrunken log2 fold change
RRIRTRPPRLPRPRPRPVQDPRP	Escherichia coli TOP10	-0.00469
RRIRVRPPRLPRPRPRPPMAPRP	Escherichia coli TOP10	0.228
RRIRSRPPRLPRPRPRPWCYPRP	Escherichia coli TOP10	-0.263

## Task Return shrunken log2 fold change for the following sequence: RRIRQRPPRLPRPRPRPPGMPRP
## Result 0.256

## Task Return shrunken log2 fold change for the following sequence: RRIRCRPPRLPRPRPRPPWQPRP
## Result 0.389

## Task Return shrunken log2 fold change for the following sequence: RRIRARPPRLPRPRPRPINAPRP
## Result -0.256

## Task Return shrunken log2 fold change for the following sequence: RRIRMRPPRLPRPRPRPHIYPRP
## Result -0.289

---

Measured shrunken log2 fold change accompanies every entry in the list below.
Tested on: Escherichia coli TOP10;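 further: peptides expressed intracellularly from a pBAD plasmid library in pooled LB shake-flask culture, induced with 0.3% L-arabinose, DNA abundance read by NGS, three biological replicates, DESeq2 with apeglm shrinkage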
Experiment: shrunken log2 fold change of peptide-encoding DNA abundance (4.5 h post-induction vs induction); higher = less antimicrobial activity (less host growth inhibition)
Conditions: time post-induction: 4.5 h; library: site-saturation at positions 5, 18, 19, 20
Keep it simple and answer with nothing but the number.

Residue Codes	shrunken log2 fold change
RRIRIRPPRLPRPRPRPPTVPRP	-0.155
RRIRKRPPRLPRPRPRPFHEPRP	-0.154
RRIRLRPPRLPRPRPRPPLNPRP	0.0486

## Task Retrieve shrunken log2 fold change on Escherichia coli TOP10; query RRIRVRPPRLPRPRPRPITNPRP
## Result -0.219

## Task Retrieve shrunken log2 fold change on Escherichia coli TOP10; query RRIRGRPPRLPRPRPRPMCWPRP
## Result 0.859

## Task Retrieve shrunken log2 fold change on Escherichia coli TOP10; query RRIRVRPPRLPRPRPRPVNRPRP
## Result -0.142

## Task Retrieve shrunken log2 fold change on Escherichia coli TOP10; query RRIRPRPPRLPRPRPRPVHCPRP
## Result 0.046
